Reference source: patent US20040229825A1

# Protocol text: Dissolution of rutin (auxiliary effects of L-arginine hydrochloride and L-cysteine); solubility in water
# Assay type: physicochemical
# Condition set: aqueous with cosolvent or surfactant or cyclodextrin; solution with 4 mmol L-arginine hydrochloride, 1 mmol L-cysteine, 8 mmol 1 N NaOH, adjusted to pH 8.5, precipitate removed
Readout type: solubility (mg/mL)
One number for each entry, in mg/mL.

Query: # get_value(readout='solubility', item= C[C@@H]1O[C@@H](OC[C@H]2O[C@@H](Oc3c(-c4ccc(O)c(O)c4)oc4cc(O)cc(O)c4c3=O)[C@H](O)[C@@H](O)[C@@H]2O)[C@H](O)[C@H](O)[C@H]1O [rutin] )
Response: 49.8

----------
Would you kindly list MIC for each of these compounds?
# Test system: MRSA
# Protocol text: Antibacterial activity of flavonoids on MRSA (agar plate dilution method, MIC)
# Type: cell-based, Staphylococcus aureus
# Condition set: Staphylococcus aureus, 20 h; MRSA 20 strains, flavonoid alone

Sample records with MIC:
O=c1c(O)c(-c2cc(O)c(O)c(O)c2)oc2cc(O)cc(O)c12    250 to 500 µg/mL
O=C(/C=C/c1ccc(O)c(O)c1)c1ccc(O)cc1O    125 to 250 µg/mL
O=C(CCc1ccc(O)cc1)c1c(O)cc(O)cc1O    125 to 250 µg/mL
O=c1c(O)c(-c2ccc(O)c(O)c2)oc2cc(O)ccc12    62.5 to 125 µg/mL

For the 2 compounds below, give their MIC values.
1. O=c1cc(-c2ccc(O)c(O)c2)oc2ccccc12 [3′,4′-dihydroxyflavone]
2. Oc1ccc(-c2[o+]c3cc(O)cc(O)c3cc2O)cc1

Response:
62.5 to 250 µg/mL
250 µg/mL

For the 2 compounds below, give their MIC values.
1. O=c1cc(-c2ccc(O)cc2)oc2cc(O)ccc12 [7,4′-dihydroxyflavone]
2. O=c1cc(-c2ccccc2)oc2c(O)c(O)ccc12 [7,8-dihydroxyflavone]

Response:
1. 125 to 500 µg/mL
2. 31.3 to 125 µg/mL
